- assay overview: drug combination growth inhibition, ovarian cancer – cell-based, oncology-focused library, rucaparib conditional, profiling panel (AID 1508598)
- experimental parameters: patient-derived ovarian cancer cells, CellTiter-Glo viability, 144 h; at 0.000305 µM; OCI-C5x cells; with rucaparib 10 µM; stronger effect = lower value; 100% = cells with rucaparib alone
Each entry below carries its reported viability.
value type: viability (%)

# molecule smiles, quantitative result
data = [
    ("CCCS(=O)(=O)Nc1ccc(F)c(C(=O)c2c[nH]c3ncc(-c4ccc(Cl)cc4)cc23)c1F", 120),
    ("CO[C@@H](C(=O)N1Cc2[nH]nc(NC(=O)c3ccc(N4CCN(C)CC4)cc3)c2C1)c1ccccc1", 122),
    ("CCN1CCN(Cc2ccc(-c3cc4c(N[C@H](C)c5ccccc5)ncnc4[nH]3)cc2)CC1", 113),
    ("CN1CCN(c2nc(C3=C(c4c[nH]c5ccccc45)C(=O)NC3=O)c3ccccc3n2)CC1", 105),
    ("CC[C@@H]1C(=O)N(C)c2cnc(Nc3ccc(C(=O)NC4CCN(C)CC4)cc3OC)nc2N1C1CCCC1", 116),
    ("COc1ccc(-n2c(SCCCN3C(=O)c4cccc5cccc(c45)C3=O)nnc2-c2ccncc2)cc1", 118),
    ("CN(NC(=O)CC(=O)NN(C)C(=S)c1ccccc1)C(=S)c1ccccc1", 121),
    ("Nc1cc(C(F)(F)F)c(-c2cc(N3CCOCC3)nc(N3CCOCC3)n2)cn1", 103),
    ("COc1ccc(-c2ccc3c(N4CCOCC4)nc(N4C[C@@H](C)O[C@@H](C)C4)nc3n2)cc1CO", 118),
]

###

- assay overview: viability loss in pontine glioma line – cell-based, SU-DIPG-XIII, MIPE4.0, CellTiter-Glo, qHTS, dose response (AID 1347061);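 also: cells exposed to compound for 48 hours before readout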
- experimental parameters: CellTiter-Glo ATP luminescence
Inconclusive results are not listed. The source made the active and inactive calls. The limit is not given here; nearly all actives have AC50 up to about 37 µM.
Possible outcomes: 1 (yes) = active, 0 (no) = inactive

# molecule smiles, category
records = [
    ("CNCc1ccc(-c2[nH]c3cc(F)cc4c3c2CCNC4=O)cc1", "0 (no)"),
    ("CCOC(=O)C1=C[C@@H](OC(CC)CC)[C@H](NC(C)=O)[C@@H](N)C1", "0 (no)"),
    ("C=CCNC1=C2C[C@@H](C)C[C@H](OC)[C@H](O)[C@@H](C)/C=C(\\C)[C@H](OC(N)=O)[C@@H](OC)/C=C\\C=C(/C)C(=O)NC(=CC1=O)C2=O", "1 (yes)"),
    ("CCCCCCCCCCCCCC(=O)N[C@H](CO)[C@H](O)c1ccc([N+](=O)[O-])cc1", "0 (no)"),
    ("CC(=O)O[C@H]1C[C@@H]2CC[C@@H]3[C@H](CC[C@@]4(C)[C@H]3C[C@H]([N+]3(C)CCCCC3)[C@@H]4OC(C)=O)[C@@]2(C)C[C@@H]1[N+]1(C)CCCCC1", "0 (no)"),
    ("COC(=O)N[C@H](C(=O)N1CCC[C@H]1c1ncc(-c2ccc(-c3ccc(-c4cnc([C@@H]5CCCN5C(=O)[C@@H](NC(=O)OC)C(C)C)[nH]4)cc3)cc2)[nH]1)C(C)C", "0 (no)"),
    ("O=C(NC[C@H](O)CO)c1ccncc1Nc1ccc(I)cc1F", "1 (yes)"),
    ("CN(C)CCN(C)C(=O)c1ccc(NC(=O)Nc2ccc(-c3nc(N4CCOCC4)c4ccn(CC(F)(F)F)c4n3)cc2)cc1", "1 (yes)"),
    ("CNC(=O)CN1CCC(Oc2cc3c(Nc4cccc(Cl)c4F)ncnc3cc2OC)CC1", "0 (no)"),
    ("CCN1CCN(Cc2ccc(-c3cc4c(N[C@H](C)c5ccccc5)ncnc4[nH]3)cc2)CC1", "1 (yes)"),
    ("Clc1cccc(-n2nnnc2NCc2ccccc2Oc2ccccn2)c1Cl", "0 (no)"),
    ("C/C(=C\\C(=O)Nc1ccccc1C(=O)O)c1ccc2ccccc2c1", "0 (no)"),
    ("CN(C)c1nc(Cc2ccc(NC(=O)c3ccc4ccccc4c3)cc2)nc(Cl)c1CC(=O)O", "0 (no)"),
    ("CC(C)(F)C[C@H](N[C@@H](c1ccc(-c2ccc(S(C)(=O)=O)cc2)cc1)C(F)(F)F)C(=O)NC1(C#N)CC1", "0 (no)"),
    ("C[C@@]12C(=O)OC(=O)[C@@]1(C)C1CCC2O1", "1 (yes)"),
    ("CCCCCN(CCC12CC3CC(CC(C3)C1)C2)C(=O)NCCCc1ccncc1", "0 (no)"),
    ("CC1(C)S[C@H]2[C@H](NC(=O)[C@@H](N)c3ccc(O)cc3)C(=O)N2[C@H]1C(=O)O", "1 (yes)"),
]

###

- assay overview: viability loss with induced miR-34 in A549 – imaging, A549 dox-inducible miR-34, nuclei and caspase counts, primary screen (AID 1347080)
- experimental parameters: A549 miR-34 inducible, Hoechst nuclei count, 48 h; measured here: total cells with miR-34 induction; stronger effect = lower value
Each record is given 1.0 if its reported cell count is strictly below 6000. Records at or above 6000 are given 0.0.

# molecule smiles, category
rows = [
    ("CS(=O)(=O)N1CCN(Cc2cc3nc(-c4cccc5[nH]ncc45)nc(N4CCOCC4)c3s2)CC1", 1.0),
    ("Nc1[nH]nc2nnc(-c3c(-c4ccccc4)nn4ccccc34)cc12", 0.0),
    ("CN(NC(=O)CC(=O)NN(C)C(=S)c1ccccc1)C(=S)c1ccccc1", 1.0),
    ("CCCCC[C@H](O)/C=C/[C@H]1[C@H](O)CC(=O)[C@H]1CCCCCCC(=O)O", 1.0),
    ("CCCS(=O)(=O)Nc1ccc(F)c(C(=O)c2c[nH]c3ncc(-c4ccc(Cl)cc4)cc23)c1F", 1.0),
    ("CCN(c1cc(-c2ccc(CN3CCOCC3)cc2)cc(C(=O)NCc2c(C)cc(C)[nH]c2=O)c1C)C1CCOCC1", 0.0),
    ("O=c1ncn2nc(Sc3ccc(F)cc3F)ccc2c1-c1c(Cl)cccc1Cl", 0.0),
    ("O=C(O)CCC/C=C\\C[C@@H]1C(=O)C[C@@H](O)[C@@H]1/C=C/[C@@H](O)CC1CCCCC1", 0.0),
]

###

- assay overview: viability loss with induced miR-34 in A549 – imaging, A549 dox-inducible miR-34, nuclei and caspase counts, primary screen (AID 1347080)
- experimental parameters: A549 miR-34 inducible, Hoechst nuclei count, 48 h; measured here: total cells with miR-34 induction; stronger effect = lower value
Lab note: compare cell count with 6000, writing 1 if less and -1 if equal or more.

# compound, category
records = [
    ("CC[C@@H](C)[C@H]1O[C@]2(CC[C@@H]1C)C[C@@H]1C[C@@H](C/C=C(\\C)[C@@H](O[C@H]3C[C@H](OC)[C@@H](O[C@H]4C[C@H](OC)[C@@H](O)[C@H](C)O4)[C@H](C)O3)[C@@H](C)/C=C/C=C3\\CO[C@@H]4[C@H](O)C(C)=CC(C(=O)O1)[C@]34O)O2 (some centres not stated) (tested in a mixture with another compound)", 1),
    ("CC(N)(C(=O)O)c1ccc(-c2nn[nH]n2)cc1 (configuration not stated)", -1),
    ("CCCCC/C=C\\CCCCCCCCCCCCC(=O)O", 1),
    ("CCCC[C@H](C)C[C@H](O)/C=C/[C@@H]1[C@@H](CCCCCCC(=O)O)[C@@H](O)C[C@H]1O", 1),
    ("NC(=NCCc1ccc(I)cc1)SCCCC1CNCN1 (configuration not stated)", -1),
    ("COc1cc2ncnc(Oc3cccc(NC(=O)Nc4cc(C(C)(C)C(F)(F)F)on4)c3)c2cc1OC", 1),
    ("COc1ccc2cc(C(C#N)OC(=O)CC3OC3c3ccccc3)ccc2c1 (configuration not stated)", 1),
    ("CCCCC[C@H](O)/C=C/[C@@H]1[C@H]2C[C@H](CCCCC(=O)O)O[C@H]2C[C@H]1O", -1),
    ("CCCCC/C=C\\C/C=C\\C/C=C\\C/C=C\\CCCC(=O)OCC", 1),
    ("COc1ccc(/C=C/c2cc(O)cc(O)c2)cc1O", 1),
    ("CCOC(=O)[C@H]1O[C@@H]1C(=O)N[C@@H](CC(C)C)C(=O)NCCC(C)C", 1),
    ("CCCCCCCCCCCCCCCCOC[C@H](COP(=O)([O-])OCC[N+](C)(C)C)OC", 1),
    ("CCCCCC(=O)CC[C@H]1[C@H](O)CC(=O)[C@@H]1CCCCCCC(=O)O", 1),
    ("c1ccc2c(CCNc3ccc(Nc4ccncc4)cc3)c[nH]c2c1", 1),
    ("CCNC(=O)CCC/C=C\\C[C@@H]1[C@@H](CC[C@@H](O)CCc2ccccc2)[C@H](O)C[C@@H]1O", 1),
    ("CNC(=O)c1ccc2cc(C3(O)CCn4cncc43)ccc2c1 (configuration not stated)", -1),
    ("CC(=O)OCOC(c1ccc2ccccc2c1)P(=O)(OCOC(C)=O)OCOC(C)=O (configuration not stated)", 1),
]
